test: chemical genetic growth profiling, strain panel (AID 1159580);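 note: tested at 20 µM; growth read once vehicle control cultures reached saturation at 30 °C; 1 = growth at the plate median or of vehicle wells; lower values mean less growth of the strain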; details: S. cerevisiae deletion strains, growth OD, locus YNL197C, strain WHI3, hits give low values
The whole screen tested about 5,500 compounds, of which about 2,000 (36%) were called active. Roughly 18% stayed inconclusive and do not appear here. The list shows a part of the results.
The label is t for normalized growth below 1 and f for normalized growth equal to or exceeding 1.

[ask] Strictly below 1 in normalized growth? `NCCc1cnc[nH]1`
[reply] t

[ask] Strictly below 1 in normalized growth? `NS(=O)(=O)c1cc2c(cc1Cl)NC=NS2(=O)=O`
[reply] t

[ask] Strictly below 1 in normalized growth? CN1C2CCC1CC(OC(c1ccccc1)c1ccc(Cl)cc1)C2 (stereo not given)
[reply] f

[ask] Strictly below 1 in normalized growth? `O=C(O)c1cc2cc(F)ccc2[nH]1`
[reply] t

====

test: chemical genetic growth profiling, strain panel (AID 1159580); details: S. cerevisiae deletion strains, growth OD, locus YKR091W, strain srl3, hits give low values
Hit rate of the full screen: of about 5,500 compounds, about 2,000 (36%) were called active. Not shown: some 18% with an inconclusive outcome. The list shows a part of the results.
ENDPOINT NAME: normalized growth
Give only the figure.

[ask] Can you share its normalized growth? I mean this compound: `CN1CC(=O)N=C1N`
[reply] 1.02

[ask] Can you share its normalized growth? I mean this compound: COc1cc2nc(N(C)CCCNC(=O)C3CCCO3)nc(N)c2cc1OC (stereo unspecified)
[reply] 0.995

[ask] Can you share its normalized growth? I mean this compound: C/C=C(\C)C(=O)O[C@H]1C[C@@H](OC(C)=O)[C@@]2(C(=O)OC)CO[C@@H]3C2[C@]12CO[C@](O)(C(=O)OC)[C@H]2[C@](C)(C12O[C@@]1(C)[C@H]1C[C@@H]2OC2OC=C[C@@]21O)[C@@H]3O (stereo partly specified)
[reply] 0.964

[ask] Can you share its normalized growth? I mean this compound: `C#CCN(C)Cc1ccccc1`
[reply] 1.02

[ask] Can you share its normalized growth? I mean this compound: `Cc1[nH]c2ccccc2c1CN(C)C`
[reply] 1.01

[ask] Can you share its normalized growth? I mean this compound: `COc1ccc(C(=O)CC(=O)O)c2c1C=CC(C)(C)O2`
[reply] 0.997

====

assay: chemical genetic growth profiling, strain panel (AID 1159580);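 note: tested at 20 µM; growth read once vehicle control cultures reached saturation at 30 °C; 1 = growth at the plate median or of vehicle wells; lower values mean less growth of the strain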; conditions: S. cerevisiae deletion strains, growth OD, locus YOR001W, strain rrp6, hits give low values
Among all 5,500 compounds or so, about 2,000 (36%) were called active. Not shown: some 18% with an inconclusive outcome. Some of the results follow.
Would you mind telling me the reported normalized growth of each entry?
Give only the figure.

[ask] Can you share its normalized growth? I mean this molecule: `O=C1NCC2(CCN(CCc3ccccc3)CC2)O1`
[reply] 0.985

[ask] Can you share its normalized growth? I mean this molecule: `COc1ccc(-c2coc3cc(O)ccc3c2=O)cc1`
[reply] 0.952

[ask] Can you share its normalized growth? I mean this molecule: `COC(=O)c1cc(=O)c(O)c2c(O)c(O)ccc2c1`
[reply] 0.985

[ask] Can you share its normalized growth? I mean this molecule: C[C@]12CCC(=O)C=C1C=CC1C2CC[C@@]2(C)C1CC[C@@]2(O)CCC(=O)O (stereo partly specified)
[reply] 1

[ask] Can you share its normalized growth? I mean this molecule: `O=S(=O)(O)c1cc(N=C=S)ccc1/C=C/c1ccc(N=C=S)cc1S(=O)(=O)O`
[reply] 0.999

[ask] Can you share its normalized growth? I mean this molecule: `CC[C@@]1(O)C[C@H](O[C@H]2C[C@H](N(C)C)[C@H](O)[C@H](C)O2)c2c(cc3c(c2O)C(=O)c2c(O)cccc2C3=O)[C@H]1C(=O)OC`
[reply] 0.934

[ask] Can you share its normalized growth? I mean this molecule: `COc1ccc(-c2coc3cc(O)ccc3c2=O)c(O)c1O`
[reply] 0.988

[ask] Can you share its normalized growth? I mean this molecule: Cc1ccccc1C(OCCN(C)C)c1ccccc1 (stereo unspecified)
[reply] 0.994

[ask] Can you share its normalized growth? I mean this molecule: `O=c1cccc2ccc(O)c(O)c2c1O`
[reply] 0.892

[ask] Can you share its normalized growth? I mean this molecule: C[C@]12CCC(=O)C=C1C=CC1C2CC[C@@]2(C)C1CC[C@@]21CCC(=O)O1 (stereo partly specified)
[reply] 1

[ask] Can you share its normalized growth? I mean this molecule: `CC[C@@]1(O)C[C@H](O[C@H]2C[C@H](N(C)C)[C@H](O)[C@H](C)O2)c2c(cc3c(c2O)C(=O)c2c(O)ccc(O)c2C3=O)[C@H]1C(=O)OC`
[reply] 1.01

====

assay: chemical genetic growth profiling, strain panel (AID 1159580);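 note: tested at 20 µM; growth read once vehicle control cultures reached saturation at 30 °C; 1 = growth at the plate median or of vehicle wells; lower values mean less growth of the strain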; settings: S. cerevisiae deletion strains, growth OD, locus YMR129W
Hit rate of the full screen: of about 5,500 compounds, about 2,000 (36%) were called active. Inconclusive results (about 18%) are left out. Cut-off read from the data, not from the text of the source: active = normalized growth mostly below about 0.91 (no sharp cut-off); inconclusive = no clear call, values can overlap the other calls; inactive = mostly above about 0.92. The list shows a part of the results.
# valid calls are t for active, f for inactive; nothing else

[ask] Assay outcome for COc1ccc(C2CNC(=O)C2)cc1OC1CCCC1 (configuration not stated) : what was it?
[reply] f

[ask] Assay outcome for `CCCCCCCCC(=O)NCc1ccc(O)c(OC)c1` : what was it?
[reply] f

[ask] Assay outcome for COc1cc2nc(N(C)CCCNC(=O)C3CCCO3)nc(N)c2cc1OC (configuration not stated) : what was it?
[reply] f

[ask] Assay outcome for `CC[C@@H]1C=C/C=C/C[C@H](C)[C@@H](O)[C@](C)(O)C(=O)[C@H](C)[C@@H](O)[C@H](C)C(=O)[C@H](C)[C@@H](O)[C@H](C)/C=C/C(=O)O[C@H]2[C@@H](C)[C@@H](CC1)O[C@@]1(CC[C@@H](C)[C@@H](C[C@H](C)O)O1)[C@@H]2C` : what was it?
[reply] f

[ask] Assay outcome for C[C@@H]1CC(Cl)CC[C@H]1C(=O)OC(C)(C)C (some centres not stated) : what was it?
[reply] f

[ask] Assay outcome for `CC[C@@]1(O)C[C@H](O[C@H]2C[C@H](N(C)C)[C@H](O)[C@H](C)O2)c2c(cc3c(c2O)C(=O)c2c(O)cccc2C3=O)[C@H]1C(=O)OC` : what was it?
[reply] t

[ask] Assay outcome for C=C1CCC2[C@](C)(CO)[C@H](O)CC[C@@]2(C)[C@@H]1C/C=C1/C(=O)OC[C@H]1O (some centres not stated) : what was it?
[reply] f

[ask] Assay outcome for C=C[C@@](C)(O)CCC1C(=C)CCC2[C@@](C)(CO)CCC[C@]12C (some centres not stated) : what was it?
[reply] f

[ask] Assay outcome for C=C[C@@](C)(O)CCC1C(=C)C[C@H](O)C2C(C)(C)CCCC12C (some centres not stated) : what was it?
[reply] f

[ask] Assay outcome for COc1cc([C@@H]2c3cc4c(cc3[C@@H](O)C3COC(=O)C32)OCO4)cc(OC)c1O (some centres not stated) : what was it?
[reply] f

[ask] Assay outcome for COc1cc([C@@H]2c3cc4c(cc3C(OC3O[C@@H]5COC(C)O[C@H]5[C@H](O)[C@H]3O)C3COC(=O)[C@@H]32)OCO4)cc(OC)c1O (some centres not stated) : what was it?
[reply] f

[ask] Assay outcome for `CC[C@@]1(O)C[C@H](O[C@H]2C[C@H](N(C)C)[C@H](O)[C@H](C)O2)c2c(cc3c(c2O)C(=O)c2c(O)ccc(O)c2C3=O)[C@H]1C(=O)OC` : what was it?
[reply] f

====

assay: chemical genetic growth profiling, strain panel (AID 1159580);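 note: tested at 20 µM; growth read once vehicle control cultures reached saturation at 30 °C; 1 = growth at the plate median or of vehicle wells; lower values mean less growth of the strain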; settings: S. cerevisiae deletion strains, growth OD, locus YEL061C, strain CIN8 (second series), hits give low values
About 2,000 (36%) of roughly 5,500 compounds were called active. Not shown: some 18% with an inconclusive outcome. This is one part of the list.
Would you mind telling me the reported normalized growth of each entry?
Give only the figure.

[ask] Can you share its normalized growth? I mean this compound: `CN1CCC(OC(c2ccccc2)c2ccccc2)CC1`
[reply] 0.965

[ask] Can you share its normalized growth? I mean this compound: `CC[C@@]1(O)C[C@H](O[C@H]2C[C@H](N(C)C)[C@H](O)[C@H](C)O2)c2c(cc3c(c2O)C(=O)c2c(O)cccc2C3=O)[C@H]1C(=O)OC`
[reply] 0.949

[ask] Can you share its normalized growth? I mean this compound: Cc1ccccc1C(OCCN(C)C)c1ccccc1 (centres undefined)
[reply] 1.01

[ask] Can you share its normalized growth? I mean this compound: Clc1ccc(C(OCCN2CCCCC2)c2ccccc2)cc1 (centres undefined)
[reply] 1.03

[ask] Can you share its normalized growth? I mean this compound: `CC(=O)Oc1cc(OC(C)=O)c2c(c1)O[C@H](c1ccc(OC(C)=O)c(OC(C)=O)c1)[C@@H](OC(C)=O)C2`
[reply] 0.998

[ask] Can you share its normalized growth? I mean this compound: `CCC[C@H](N[C@@H](C)C(=O)N1[C@H](C(=O)O)C[C@@H]2CCCC[C@@H]21)C(=O)OCC`
[reply] 1.01

[ask] Can you share its normalized growth? I mean this compound: COC(=O)C1=COC(OC2OC(CO)C(O)C(O)C2O)C2C(C)CC(=O)C12 (centres undefined)
[reply] 1.03

[ask] Can you share its normalized growth? I mean this compound: `CC[C@@]1(O)C[C@H](O[C@H]2C[C@H](N(C)C)[C@H](O)[C@H](C)O2)c2c(cc3c(c2O)C(=O)c2c(O)ccc(O)c2C3=O)[C@H]1C(=O)OC`
[reply] 0.879

[ask] Can you share its normalized growth? I mean this compound: CN(C)CCOC(c1ccc(Cl)cc1)c1ccccn1 (centres undefined)
[reply] 1.02
